Where do these numbers come from? They come from patent US20100316655A1.

- Tested on: KB-V1 adenocarcinoma cell line
- method-description: MTT cytotoxicity assay, P-gp (MDR1) expressing KB-V1 cells; MDR1 selectivity vs KB-3-1
- Type: cell-based, human
- setup-conditions: Homo sapiens; Table 1; MTT, 72 hours; KB-V1 (high P-gp)
- Protocol: Exemplary compounds were also tested against the KB-V1 adenocarcinoma cell line that expresses high levels of P-gp (the protein product of MDR1). […] MDR1 selectivity is determined by the ratio of IC50 against KB-3-1 cells divided by its IC50 against KB-V1 cells. This example describes evaluation of compounds using the MTT cytotoxicity assay. […]
// NB: equality with 6 µM counts as label 0; only IC50 strictly below is label 1

| compound | category |
| --- | --- |
| NC(=S)N/N=C1\C(=O)Nc2ccccc21 | label 0 |
| COc1ccc(NC(=O)N/N=C2\C(=O)Nc3ccccc32)cc1 | label 0 |
| COc1ccc(NC(=S)NN)cc1 | label 0 |
| COc1ccc(NC(=S)N/N=C2\CCc3ccccc32)cc1 | label 0 |
| COc1ccc(NC(=S)NN=C2Cc3ccccc3C2)cc1 | label 0 |
| COc1ccc(NC(=S)N/N=C2\C(=O)N(C)c3ccccc32)cc1 [drawing 35] | label 0 |
| Cc1cnc(/C=N/NC(N)=S)c2cccc(N)c12 | label 1 |
| C=CCNC(=S)N/N=C1\C(=O)Nc2ccccc21 [drawing 40] | label 0 |
| COc1ccc(NC(=S)N/N=C2\C(=O)Nc3ccc(S(=O)(=O)O)cc32)cc1 | label 0 |
| O=C1Nc2ccc(Br)cc2/C1=N/NC(=S)Nc1ccc([N+](=O)[O-])cc1 [drawing 23] | label 1 |
| COc1ccc(NC(=S)N/N=C/c2ccc(NC(C)=O)cc2)cc1 | label 0 |
| O=C1Nc2ccc(Br)cc2/C1=N/NC(=S)Nc1ccc(F)cc1 [drawing 22] | label 1 |
| CC(=O)Nc1ccc(/C=N/NC(N)=S)cc1 | label 0 |
| COc1ccc(NC(=S)N/N=C/c2ccccn2)cc1 [drawing 37] | label 1 |
| O=C1Nc2ccccc2C1=O | label 0 |
| COc1ccc(NC(=S)N/N=C2\C(=O)Nc3ccc([N+](=O)[O-])cc32)cc1 [drawing 39] | label 0 |
| NC(=O)N/N=C1\C(=O)Nc2ccccc21 | label 0 |
| COc1ccc(NC(=S)N/N=C2\C(=O)Nc3c2ccc2ccccc32)cc1 | label 0 |
| COc1ccc(NC(=S)N/N=C2\C(=O)Nc3ccc(F)cc32)cc1 [drawing 34] | label 1 |

====

Recorded measurements of log10 of IC50, one per entry
- System: KB-3-1 adenocarcinoma cells
- method-description: MTT cytotoxicity assay, parental P-gp-negative KB-3-1 cells
- Assay type: cell-based, human
- setup-conditions: Table 2, 72 hours, unit inferred
test-readout: log10 of IC50 (log10 of the value in µM)

| molecule | log10 of IC50 |
| --- | --- |
| O=C1Nc2ccccc2C1=NNC(=S)Nc1ccc(C(F)(F)F)cc1 | 0.93 |
| CCCCNC(=S)NN=C1C(=O)Nc2ccccc21 | 1.04 |
| COc1ccc(NC(=S)NN=C2C(=O)Nc3ccccc32)cc1 [NSC73306, reference compound] | 1.15 |
| CNC(=S)NN=C1C(=O)Nc2ccccc21 | 1.55 |
| O=C1Nc2ccccc2C1=NNC(=S)Nc1ccc(Oc2ccccc2)cc1 | 0.76 |
| O=C1Nc2ccccc2C1=NNC(=S)Nc1ccccc1 | 0.55 |
| O=C1Nc2ccccc2C1=NNC(=S)NC1CCCCC1 | 0.96 |
| O=C1Nc2ccccc2C1=NNC(=S)Nc1ccc(O)cc1 | 1.55 |
| COc1ccccc1NC(=S)NN=C1C(=O)Nc2ccccc21 | 0.70 |
| O=C1Nc2ccccc2C1=NNC(=S)Nc1ccccc1Cl | 0.35 |
| O=C1Nc2ccccc2C1=NNC(=S)Nc1cccc(Cl)c1 | 0.27 |
| O=C1Nc2ccccc2C1=NNC(=S)Nc1ccc(Cl)cc1 | 1.13 |
| O=C1Nc2ccccc2C1=NNC(=S)Nc1cccc2ccccc12 | 0.71 |
| CC(C)NC(=S)NN=C1C(=O)Nc2ccccc21 | 1.60 |
| O=C1Nc2ccccc2C1=NNC(=S)NCc1ccccc1 | 1.07 |
| COc1cc(NC(=S)NN=C2C(=O)Nc3ccccc32)cc(OC)c1OC | 1.05 |
| O=C1Nc2ccccc2C1=NNC(=S)NC12CC3CC(CC(C3)C1)C2 | 0.50 |
| CN(C)c1ccc(NC(=S)NN=C2C(=O)Nc3ccccc32)cc1 | 0.84 |

====

- Test system: KB-V1 adenocarcinoma cell line
- method-description: MTT cytotoxicity assay, P-gp (MDR1) expressing KB-V1 cells; MDR1 selectivity vs KB-3-1
- Assay type: cell-based, human
- setup-conditions: Homo sapiens, KB-V1; Table 2; MTT, 72 hours; unit inferred
Recorded measurements of IC50, one per entry

| compound-string | target-under-test | IC50 / µM |
| --- | --- | --- |
| O=C1Nc2ccccc2/C1=N/NC(=S)Nc1c(F)cc(F)cc1F | KB-V1 adenocarcinoma cell line | 7.28 |
| O=C1Nc2ccccc2/C1=N/NC(=S)Nc1ccc([N+](=O)[O-])cc1 | KB-V1 adenocarcinoma cell line | 2.07 |
| Cc1ccc(NC(=S)N/N=C2\C(=O)Nc3ccccc32)cc1 | KB-V1 adenocarcinoma cell line | 2.6 |
| O=C1Nc2ccc(F)cc2/C1=N/NC(=S)Nc1ccc(F)cc1 | KB-V1 adenocarcinoma cell line | 0.91 |
| O=C1Nc2ccccc2/C1=N/NC(=S)Nc1ccc(F)cc1 | KB-V1 adenocarcinoma cell line | 1.92 |

====

- Test system: KB-3-1 adenocarcinoma cells
- method-description: MTT cytotoxicity assay, parental P-gp-negative KB-3-1 cells
- Assay type: cell-based, human
- setup-conditions: Homo sapiens, Table 1, 72 hours, KB-3-1 (P-gp-negative)
pIC50: −log10 of the molar value.

| compound-string | pIC50 |
| --- | --- |
| COc1ccc(NC(=S)N/N=C/c2ccc(NC(C)=O)cc2)cc1 | < 4.30 |
| COc1ccc(NC(=O)N/N=C2\C(=O)Nc3ccccc32)cc1 | 4.56 |
| CC(=O)Nc1ccc(/C=N/NC(N)=S)cc1 | < 4.30 |

====

Recorded measurements of IC50, one per entry
- Tested on: KB-3-1 adenocarcinoma cells
- method-description: MTT cytotoxicity assay, parental P-gp-negative KB-3-1 cells
- Assay type: cell-based, human
- setup-conditions: Homo sapiens, Table 1, 72 hours, KB-3-1 (P-gp-negative)

| compound | qualifier-symbol | IC50, µM |
| --- | --- | --- |
| Cc1cnc(/C=N/NC(N)=S)c2cccc(N)c12 | = | 1.9 |
| COc1ccc(NC(=S)N/N=C2\C(=O)Nc3c2ccc2ccccc32)cc1 | = | 4.4 |
| COc1ccc(NC(=S)N/N=C2\CCc3ccccc32)cc1 | > | 50 |
| COc1ccc(NC(=S)N/N=C2\C(=O)Nc3ccc([N+](=O)[O-])cc32)cc1 [drawing 39] | = | 26.3 |
| O=C1Nc2ccc(Br)cc2/C1=N/NC(=S)Nc1ccc(F)cc1 [drawing 22] | = | 13.1 |
| COc1ccc(NC(=S)NN)cc1 | > | 50 |

====

- System: KB-3-1 adenocarcinoma cells
- method-description: MTT cytotoxicity assay, parental P-gp-negative KB-3-1 cells
- Format: cell-based, human
- setup-conditions: Homo sapiens, Table 1, 72 hours, KB-3-1 (P-gp-negative)
pIC50: −log10 of the molar value.
test-readout: pIC50

| molecule | test-readout | qualifier-symbol | value |
| --- | --- | --- | --- |
| NC(=S)N/N=C/c1ncccc1N | pIC50 | = | 5.85 |
| COc1ccc(NC(=S)N/N=C2\C(=O)N(C)c3ccccc32)cc1 [drawing 35] | pIC50 | = | 4.71 |
| NC(=S)N/N=C1\C(=O)Nc2ccccc21 | pIC50 | < | 4.30 |
| C=CCNC(=S)N/N=C1\C(=O)Nc2ccccc21 [drawing 40] | pIC50 | = | 4.58 |
| O=C1Nc2ccc(Br)cc2/C1=N/NC(=S)Nc1ccc([N+](=O)[O-])cc1 [drawing 23] | pIC50 | = | 4.55 |
| COc1ccc(NC(=S)N/N=C/c2ccccn2)cc1 [drawing 37] | pIC50 | = | 5.47 |
| NC(=O)N/N=C1\C(=O)Nc2ccccc21 | pIC50 | < | 4.30 |
| COc1ccc(NC(=S)NN=C2Cc3ccccc3C2)cc1 | pIC50 | < | 4.30 |
| COc1ccc(NC(=S)N/N=C2\C(=O)Nc3ccc(S(=O)(=O)O)cc32)cc1 | pIC50 | < | 4.30 |
| COc1ccc(NC(=S)N/N=C2\C(=O)Nc3ccc(F)cc32)cc1 [drawing 34] | pIC50 | = | 4.41 |
| O=C1Nc2ccccc2C1=O | pIC50 | < | 4.30 |
